Cited source: the EternaBench riboswitch data

tested on: MS2 coat protein; experiment: apparent Kd, MS2 coat protein; higher = weaker binding; RNA-MaP array; theophylline 2 mM where present; conditions: ligand present: theophylline; designed as: ON switch for theophylline
Assign apparent Kd to each entry below.
Answers are plain numbers, in nM.

- Seq Text: "AAGGUGAUCCCAGAUACCAGCUCAACAUGAGGAUCACCCAUGUACGGGACGAAAGUCCCGGGCCCUUGGCAGCUGGGUUGCCAAG"
  Uom: "nM"
  apparent Kd: 123
- Seq Text: "AAUAACAUGAGGAUCACCCAUGUAAAAGAUACCAGAGUGAUGAUCCUCCCUUGGCAGCUUAAUAACGCUAUUGAUUACAAUAGCG"
  Uom: "nM"
  apparent Kd: 108
- Seq Text: "GGGUAUGAUCCGGAUACCAGCGAACAUGAGGAUCACCCAUGUGACCUAAGAUAGGCUAAACGCCCUUGGCAGCCGAGAUUGCGUU"
  Uom: "nM"
  apparent Kd: 31.5

Hey, can you go through the list below and give me apparent Kd for every item?
1. AGUGUUAUAACUGAUACCAGACUUUUGCUUAUACAUGAGGAUCACCCAUGUAAAAUGGUUGUCCCUUGGCAGCAGAAGUUACACA
2. ACAUGAGGAUCACCCAUGUCACGGCACGAUACCAGCUGAUGCGGUGGCCCUUGGCAGCGUGACGUUUGGUCCCGCGGAUGACACG
3. GGGUAAGAUCCGGAUACCAGCGAACAUGAGGAUCACCCAUGUGAAAUAAGAUAGAAUAAACGCCCUUGGCAGCCGAAAUAGAGUU
4. CGAUCUUUCGAAAGAAGGAUCGAGUCUGAUACCAGAGACGAAAGUCUCCCUUGGCAGCAGUGCCAACAUGAGGAUCACCCAUGUA

Resp:
[327, 117, 30.1, 21.1]

For each of the items listed, what is its apparent Kd?
1. CAGCACAUGAGGAUCACCCAUGUGAGGGAUACCAGCUCAGGCGUGGGCCCUUGGCAGCUCUCUGGCUGACGAAAGUCAGCCUGUG
2. UUUGAUAUGACAGAUACCAGCGUGUUGUUGAACAUGAGGAUCACCCAUGUAGUGAUCAAGCGCCCUUGGCAGCUGGUGUGUUAGG

Resp:
[16.7, 82.7]

---

system: MS2 coat protein; experiment: apparent Kd, MS2 coat protein; higher = weaker binding; RNA-MaP array; tryptophan 2.4 mM where present; details: ligand present: tryptophan; designed as: OFF switch for tryptophan
Measurement Kind: apparent Kd (nM)
Answers are plain numbers, in nM.

- Seq Text: "GAGCUCGUGGACUGGCGUGCUCCGCUCCGUCGAGGACCGGUACGGCCGCCACUCGACAUGAGGAUCACCCAUGUGUGAGCUCGCG"
  Uom: "nM"
  Numeric Readout: 30.6

Please look at the items below and tell me apparent Kd for each one, in order.
1. AGCGUGCAUAGGAAAACUAUGUACGCAAAUCGAGGACCGGUACGGCCGCCACUCGUCCUCAACAUGAGGAUCACCCAUGUAAUAA
2. UAAUCAGUGCCGGUUCUCGGAUCCUCAUGUCGAGGACCGGUACGGCCGCCACUCGGAACAUGAGGAUCACCCAUGUAAUAAUAAU
3. AACAUGAGGAUCACCCAUGUGUCCUCGAAACGAGGACCGGUACGGCCGCCACUCGAAAUAAGCUGUUGACGAAAAGUCAGCAGCA
4. UUAUAAGUACCGGUCCUCAGAUCCUCAUGACGAGGACCGGUACGGCCGCCACUCGAAACAUGAGGAUCACCCAUGUAAUAAUAUU

Resp:
[34.7, 92.7, 501, 20]

Batch request: apparent Kd per item, same order as input.
1. AUUGUCGUGUCGGCCGCCACUGUCAUGGUUUUCGUGGAAAACAUGAGGAUCACCCAUGUAAUUGACAGGACCGGGACAUGGCGGC
2. AACAUGAGGAUCACCCAUGUGUCCUCGAAACGAGGACCGGUACGGCCGCCACUCGAAGCAUGUUGACGAAAAGUCAGCAUGCAAA

Resp:
1. 10.4
2. 1060

---

system: MS2 coat protein; assay: apparent Kd, MS2 coat protein; higher = weaker binding; RNA-MaP array; FMN 200 µM where present; details: designed as: OFF switch for flavin mononucleotide; no ligand
Give T when the value for apparent Kd is at least 0.1 µM. Give F when it is less.

Solved entries (count: 5):
- Seq Text: "UCCUGGCGAGGAUAUACAAUGUUUUUCGCGUGUUGUUGGGAACAUGAGGAUCACCCAUGUAGAAGGUGCUACUG"
  Assigned Class: "T"
- Seq Text: "GUCAGCUCGUGAGGAUAUACAACACUGCUUCGGCAGUGUAUUAAGAUCACAUGAGGAUCACCCAUGUAGAAGGCACGAGAUGAU"
  Assigned Class: "F"
- Seq Text: "AGUAGUUCAGGAUAUGAUGUAUGUUACAUGAGGAUCACCCAUGUAGGUCCUGGAAAUGUAUCAGAAGGGAAUAUCU"
  Assigned Class: "T"
- Seq Text: "GUUUUUCCUCAUGUACAUGAGGAACAUGAGGAUCACCCAUGUAGAAGGAAUUCCCUUAAAUUAAGUUAGGAUAUACAUAUAUUU"
  Assigned Class: "T"
- Seq Text: "GAGCGGGAAACAUGAGGAUCACCCAUGUGAUGAAUCCUCACAUAGGAUAUCCACACGAGAAGUGUGGAGAAGGAUGACCCGGUC"
  Assigned Class: "T"

Kindly consider the entry below.
Req: Would you say GGCGCAUUUGUGGCGUAUAGGUCGAAGGAUAUCACGUGCCGCCUAGUACAUGAGGAUCACCCAUGUGAGAAGGUCGAACUUAAC shows apparent Kd at minimum 0.1 µM?
Resp: F

---

What apparent Kd was measured for each of the following?
tested on: MS2 coat protein; assay: apparent Kd, MS2 coat protein; higher = weaker binding; RNA-MaP array; theophylline 2 mM where present; settings: ligand present: theophylline; designed as: OFF switch for theophylline
Returns: string containing the numeric result and its unit.

Some sequences with recorded apparent Kd:
- Seq Text: "ACAUGAGGAUCACCCAUGUUCCUCAUUGAUACCAGUGAAUUUAGACGCCCUUGGCAGCGAGUUUUUUUAGAAGAAGUUUUUUUUU"
  apparent Kd: "1070 nM"
- Seq Text: "UCACGUGGGAAUGAUACCAGCCACAUGAGGAUCACCCAUGUGCAUGGUGUGAGCUUCACGGGCCCUUGGCAGCAUUUCAAGUCGC"
  apparent Kd: "69.5 nM"
- Seq Text: "ACGUCCGGAUUAAUCGUGGGCAUGGUCGAUACCAGUAUUUUAAUCUACCCUUGGCAGCGACAUGAGGAUCACCCAUGUGCGAUGA"
  apparent Kd: "30.9 nM"
- Seq Text: "ACUAGUUGUGCAGAUACCAGACAUGAGGAUCACCCAUGUUUGGGAUCUUCGGAUCUUCCUGUCCCUUGGCAGCUGUACAUCUAGA"
  apparent Kd: "22.5 nM"

Could you report apparent Kd for every entry in the following list?
1. ACAUGAGGAUGGGAUACCAGAUACAUGAGGAUCACCCAUACAUGAGGAUCACCCAUGUCCGUCCCUUGGCAGCCCAACAUGAGGA
2. AGCGAUAUGCAUGAUACCAGCUACAUGAGGAUCACCCAUGUGCGUCAGAAAUGACUGUGUAGCCCUUGGCAGCAUAGAGCAUGUA
3. GAUGAACUAUUUGAUACCAGACCACAUGAGGAUCACCCAUGUGAGUUUCGUCCUUAGCCGGUCCCUUGGCAGCAAAUAGUUUAUC
4. GAGGAUCAAGUAGAUACCAGCACAUGAGGAUCACCCAUGUAAUGGUGUCCCUCAAGAACGUGCCCUUGGCAGCUACUAUCAAAAU
5. GCAUGCGAUACCGAUACCAGCUACUCCAUGGCGCUCCACAUGAGGAUCACCCAUGUAAAUAGCCCUUGGCAGCGGUAUUGAGAUG
6. UAUAUAUAUAGUGAUACCAGCAGAGAAAACGUUUAUCCUAACAUGAGGAUCACCCAUGUAUGCCCUUGGCAGCGUUAUAUAUAUA

Resp:
1: 506 nM; 2: 73.6 nM; 3: 52.5 nM; 4: 16.3 nM; 5: 315 nM; 6: 32.4 nM

---

Field: apparent Kd. Provide a value for each of the sequences that follow.
tested on: MS2 coat protein; assay: apparent Kd, MS2 coat protein; higher = weaker binding; RNA-MaP array; theophylline 2 mM where present; conditions: designed as: OFF switch for theophylline; no ligand
Numbers only, in nM.

Illustrative cases are given below, each with its answer.
- Seq Text: "GAGCUGAUGUAGAGCGAAUAUACGAGAGAUACCAGUACAGAAAUGUACCCUUGGCAGCUCAACUUUACAUGAGGAUCACCCAUGU"
  Tested Target: "MS2 coat protein"
  Uom: "nM"
  apparent Kd: 13.8
- Seq Text: "ACAUGAGGAUCACCCAUGUUCCUCGCCGAUACCAGUGAAGAAGAACGCCCUUGGCAGCGGAAAGAAUAUUUUGGAGAUGAGAUAU"
  Tested Target: "MS2 coat protein"
  Uom: "nM"
  apparent Kd: 204
- Seq Text: "CAGAGCUACCGGGAUACCAGAAAUGGUAUUCCUUAAUUUCUUACAUGAGGAUCACCCAUGUUCCCUUGGCAGCUUGGUAGCUCUG"
  Tested Target: "MS2 coat protein"
  Uom: "nM"
  apparent Kd: 86.4

# map each sequence to its apparent Kd
1. AACAAUGCACAUGAGGAUCACCCAUGUGAUACCAGCCGCAACAUAGGCCCUUGGCAGCAUGUGGGUAUAGAACGAUUUGGCUGAA
2. AUAUGAUCAUAGGAUACCAGAAAUGGUAUUCCUUUAUUUCUUACAUGAGGAUCACCCAUGUUCCCUUGGCAGCUUAUGAUCAUAU
3. ACGUCCGGAUUAAUCGUGGGCAUGGUCGAUACCAGUAUUUUAAUCUACCCUUGGCAGCGACAUGAGGAUCACCCAUGUGCGAUGA
4. AUAUGAUCAUGUGAUACCAGAAAUGGUAUUCCUCGCUGGAUUACAUGAGGAUCACCCAUGUUCCCUUGGCAGCAUAUGAUCAUAU
5. GAGUUCCUGAGAGAUACCAGUGAGGCCACAUGAGGAUCACCCAUGUCCCUCACUCCGGCCCACCCUUGGCAGCUCGAAAGAUAUU
6. AGCGGAACGGAAGGGUCCCGAAAUUGUGAUACCAGCCUUGAAUCCGGCCCUUGGCAGCACAUGAGGAUCACCCAUGUACUGCGGU
7. AAACUGGGUGUAAAAUAAAUAAUCACUGAUACCAGACUAUGAGAUGUCCCUUGGCAGCAGAAACAUGAGGAUCACCCAUGUAAUA

Resp:
[45.9, 126, 16.7, 21.4, 10.9, 13, 17.9]
